The entries below are paired with their reported MIC.
system: E. coli; experiment: Broth dilution MIC determination (CLSI) against E. coli strains; assay type: cell-based; settings: Escherichia coli, read-out: MIC E. coli TEM-1, TEM-1

compound: CC[C@H]1OC(=O)[C@H](C)C(=O)[C@H](C)[C@@H](O[C@@H]2OC(Cn3cc(-c4cccc(N)n4)nn3)CC(N(C)C)C2O)[C@](C)(OC)C[C@@H](C)CN[C@H](C)[C@H]2N(CCCCn3cc(-c4cccc(N)c4)nn3)C(=O)O[C@]12C (stereo partly shown)
MIC (µg/mL): 16
//
compound: CC[C@H]1OC(=O)[C@H](C)C(=O)[C@H](C)[C@@H](O[C@@H]2OC(CNC(=O)c3cnccn3)CC(N(C)C)C2O)[C@](C)(OC)C[C@@H](C)CN[C@H](C)[C@H]2N(CCCCn3cc(-c4cccc(N)c4)nn3)C(=O)O[C@]12C (stereo partly shown)
MIC (µg/mL): 32
//
compound: CC[C@H]1OC(=O)[C@H](C)C(=O)[C@H](C)[C@@H](O[C@@H]2OC(Cn3cc(-c4cnc(N)s4)nn3)CC(N(C)C)C2O)[C@](C)(OC)C[C@@H](C)CN[C@H](C)[C@H]2N(CCCCn3cc(-c4cccc(N)c4)nn3)C(=O)O[C@]12C (stereo partly shown)
MIC (µg/mL): 16
//
compound: CC[C@H]1OC(=O)[C@H](C)C(=O)[C@H](C)[C@@H](O[C@@H]2OC(CNC(=O)C(Cl)Cl)CC(N(C)C)C2O)[C@](C)(OC)C[C@@H](C)CN[C@H](C)[C@H]2N(CCCCn3cc(-c4cccc(N)c4)nn3)C(=O)O[C@]12C (stereo partly shown)
MIC (µg/mL): 16

---

The entries below are paired with their reported MIC.
Tested on: S. aureus
Assay: Broth dilution MIC determination (CLSI) against S. aureus strains
Assay type: cell-based
Conditions: Staphylococcus aureus, ATCC29213, ATCC29213; read-out: MIC S. aureus ATCC29213
Excerpt: Minimum inhibitory concentrations (MICs) for macrolides described herein have been determined for unique strains of S. aureus, S. pneumoniae, S. pyogenes, E. faecalis, E. coli, A. baumannii, K. pneumoniae, P. aeruginosa, and H. influenzae, including several multidrug-resistant strains, with a special focus on macrolide resistant mechanisms. Azithromycin and solithromycin were included as control compounds. CLSI standard procedures for broth dilution MIC determination were used. […]

compound: C=CCOC(=O)NCC1CC(N(C)C)C(O)[C@H](O[C@@H]2[C@@H](C)C(=O)[C@@H](C)C(=O)O[C@H](CC)[C@@]3(C)OC(=O)N(CCCCn4cc(-c5cccc(N)c5)nn4)[C@@H]3[C@@H](C)NC[C@H](C)C[C@@]2(C)OC)O1 (some centres unmarked) [FSM-21795]
MIC: 16 µg/mL

compound: CC[C@H]1OC(=O)[C@H](C)C(=O)[C@H](C)[C@@H](O[C@@H]2OC(CN(C)C)CC(N(C)C)C2O)[C@](C)(OC)C[C@@H](C)CN(C)[C@H](C)[C@H]2N(CCCCn3cc(-c4cccc(N)c4)nn3)C(=O)O[C@]12C (some centres unmarked) [FSM-22003]
MIC: 8 µg/mL

compound: CC[C@H]1OC(=O)[C@H](C)[C@@H](O[C@H]2C[C@@](C)(OC)[C@@H](O)[C@H](C)O2)[C@H](C)[C@@H](O[C@@H]2O[C@H](C)C[C@H](N(C)C)[C@H]2O)[C@](C)(O)C[C@@H](C)CN(C)[C@H](C)[C@@H](O)[C@]1(C)O [Azithromycin, azithromycin, reference compound]
MIC: 1 µg/mL

compound: CC[C@H]1OC(=O)[C@H](C)C(=O)[C@H](C)[C@@H](O[C@@H]2OC(CNC(=O)CNC(C)(C)C)CC(N(C)C)C2O)[C@](C)(OC)C[C@@H](C)CN[C@H](C)[C@H]2N(CCCCn3cc(-c4cccc(N)c4)nn3)C(=O)O[C@]12C (some centres unmarked) [FSM-21879]
MIC: 32 µg/mL

compound: CC[C@H]1OC(=O)[C@H](C)C(=O)[C@H](C)[C@@H](O[C@@H]2OC(CNC(=O)c3cc[nH]n3)CC(N(C)C)C2O)[C@](C)(OC)C[C@@H](C)CN[C@H](C)[C@H]2N(CCCCn3cc(-c4cccc(N)c4)nn3)C(=O)O[C@]12C (some centres unmarked) [FSM-21888]
MIC: 32 µg/mL

---

tested on: E. coli; test: Broth dilution MIC determination (CLSI) against E. coli strains; assay type: cell-based; details: E. coli ATCC25922, strain MP-4 (Table N2)

molecule: CCC1OC(=O)C(C)C(=O)C(C)C(OC2OC(C)CC(N3CCOC3CO)C2O)C(C)(OC)CC(C)CNC(C)C2N(CCCCn3cc(-c4cccc(N)c4)nn3)C(=O)OC12C (centres unmarked)
MIC: >64 mg/L
--
molecule: CCC1OC(=O)C(C)C(=O)C(C)C(OC2OC(C)CC(N(CCO)CCO)C2O)C(C)(OC)CC(C)CNC(C)C2N(CCCCn3cc(-c4cccc(N)c4)nn3)C(=O)OC12C (centres unmarked)
MIC: >64 mg/L
--
molecule: CCC1OC(=O)C(C)C(=O)C(C)C(OC2OC(C)CC(NCc3cccnc3)C2O)C(C)(OC)CC(C)CNC(C)C2N(CCCCn3cc(-c4cccc(N)c4)nn3)C(=O)OC12C (centres unmarked)
MIC: >64 mg/L
--
molecule: CCC1OC(=O)C(C)C(=O)C(C)C(OC2OC(C)CC(N(C)Cc3cccnc3)C2O)C(C)(OC)CC(C)CNC(C)C2N(CCCCn3cc(-c4cccc(N)c4)nn3)C(=O)OC12C (centres unmarked)
MIC: 64 mg/L
--
molecule: CCC1OC(=O)C(C)C(=O)C(C)C(OC2OC(C)CC(N(C)CC#N)C2O)C(C)(OC)CC(C)CNC(C)C2N(CCCCn3cc(-c4cccc(N)c4)nn3)C(=O)OC12C (centres unmarked)
MIC: 64 mg/L

---

system: E. coli; test: Broth dilution MIC determination (CLSI) against E. coli strains; format: cell-based; conditions: ATCC25922, Strain No. MP-4
The entries below are paired with their reported MIC E. coli ATCC25922.
value-kind: MIC E. coli ATCC25922

molecule: CCC1OC(=O)C(C)C(=O)C(C)C(OC2OC(C)CC(n3cccc3)C2O)C(C)(OC)CC(C)CNC(C)C2N(CCCCn3cc(-c4cccc(N)c4)nn3)C(=O)OC12C (stereo not shown)
study-target: E. coli
recorded-value: >32 µg/mL
//
molecule: CCC1OC(=O)C(C)C(=O)C(C)C(OC2OC(C)CC(n3ccnc3)C2O)C(C)(OC)CC(C)CNC(C)C2N(CCCCn3cc(-c4cccc(N)c4)nn3)C(=O)OC12C (stereo not shown)
study-target: E. coli
recorded-value: >64 µg/mL
//
molecule: CCC1OC(=O)C(C)C(=O)C(C)C(OC2OC(CNCc3ccc(F)cc3)CC(N(C)C)C2O)C(C)(OC)CC(C)CNC(C)C2N(CCCCn3cc(-c4cccc(N)c4)nn3)C(=O)OC12C (stereo not shown)
study-target: E. coli
recorded-value: 4 µg/mL
//
molecule: CCC1OC(=O)C(C)C(=O)C(C)C(OC2OC(C)CC(NCC#N)C2O)C(C)(OC)CC(C)CNC(C)C2N(CCCCn3cc(-c4cccc(N)c4)nn3)C(=O)OC12C (stereo not shown)
study-target: E. coli
recorded-value: >64 µg/mL
//
molecule: C=CCOCC1CC(N(C)C)C(O)C(OC2C(C)C(=O)C(C)C(=O)OC(CC)C3(C)OC(=O)N(CCCCn4cc(-c5cccc(N)c5)nn4)C3C(C)NCC(C)CC2(C)OC)O1 (stereo not shown)
study-target: E. coli
recorded-value: 32 µg/mL
//
molecule: CCC1OC(=O)C(C)C(=O)C(C)C(OC2OC(C)CC(N3CCOCC3)C2O)C(C)(OC)CC(C)CNC(C)C2N(CCCCn3cc(-c4cccc(N)c4)nn3)C(=O)OC12C (stereo not shown)
study-target: E. coli
recorded-value: >64 µg/mL
//
molecule: CCC1OC(=O)C(C)C(=O)C(C)C(OC2OC(C)CC(NCC(=O)O)C2O)C(C)(OC)CC(C)CNC(C)C2N(CCCCn3cc(-c4cccc(N)c4)nn3)C(=O)OC12C (stereo not shown)
study-target: E. coli
recorded-value: >64 µg/mL

---

system: K. pneumoniae; experiment: Broth dilution MIC determination (CLSI) against K. pneumoniae strains; assay type: cell-based; details: Klebsiella pneumoniae, ATCC10031, ATCC10031; read-out: MIC K. pneumoniae ATCC10031

molecule: CC[C@H]1OC(=O)[C@H](C)[C@@H](O[C@H]2C[C@@](C)(OC)[C@@H](O)[C@H](C)O2)[C@H](C)[C@@H](O[C@@H]2O[C@H](C)C[C@H](N(C)C)[C@H]2O)[C@](C)(O)C[C@@H](C)CN(C)[C@H](C)[C@@H](O)[C@]1(C)O [Azithromycin, azithromycin, reference compound]
units-of-measure: µg/mL
MIC: 4
//
molecule: CC[C@H]1OC(=O)[C@H](C)C(=O)[C@H](C)[C@@H](O[C@@H]2OC(CNC(=O)c3cc[nH]n3)CC(N(C)C)C2O)[C@](C)(OC)C[C@@H](C)CN[C@H](C)[C@H]2N(CCCCn3cc(-c4cccc(N)c4)nn3)C(=O)O[C@]12C (some centres unmarked)
units-of-measure: µg/mL
MIC: 8
